These measurements were taken from PubChem BioAssay (NCATS).

Target: Nuclear receptor ROR-gamma (Homo sapiens)
Assay: qHTS assay for small molecule antagonists of the retinoid-related orphan receptor gamma (ROR-gamma) signaling pathway (AID 651802); further: nearly all actives have a fitted effect of over 60% in size
Conditions: ROR-gamma antagonist cell reporter assay; series mostly up to 92.2 µM
Results filed as inconclusive are left out. Calls of active or inactive are those of the source. The call rests on the fitted dose curve; in most records, active means well fitted inhibition curve with a large enough effect; inconclusive means small, poorly fitted or top-dose-only effect; inactive means no such curve, though single readings can be large or run the other way.
Outcome codes: label 1 (active), label 0 (inactive)

{"columns": ["Compound", "Group"],
 "data": [
  ["O=[N+]([O-])c1cc(C(F)(F)F)cc([N+](=O)[O-])c1Cl", "label 0"],
  ["Oc1cc(Cl)cc(Cl)c1Cl", "label 1"],
  ["O=C1OC(=O)c2c(Br)c(Br)c(Br)c(Br)c21", "label 0"],
  ["c1ccc2cc3c(cc2c1)-c1cccc2cccc-3c12", "label 0"],
  ["O=NO", "label 0"],
  ["CC(C)(C)C(=O)C1C(=O)c2ccccc2C1=O", "label 1"],
  ["O=[N+]([O-])C(Br)Br", "label 1"],
  ["NC(N)=S", "label 0"],
  ["CN(C)c1ccc(N=O)cc1", "label 1"],
  ["C(=NC1CCCCC1)=NC1CCCCC1", "label 1"],
  ["[Cd+2].[Cl-].[Cl-]", "label 1"],
  ["Cc1ccc(N)c([N+](=O)[O-])c1", "label 0"],
  ["ClC1=C(Cl)C2(Cl)C3C(Cl)C(Cl)CC3C1(Cl)C2(Cl)Cl (stereo not given)", "label 1"],
  ["Cc1cccc(C)c1", "label 0"],
  ["CC(C)CC(C)Nc1ccc(Nc2ccccc2)cc1 (stereo not given)", "label 1"]
]}

* * *

System: CP266
Experiment: qHTS profiling for inhibitors of Plasmodium falciparum proliferation (AID 504749); further: nearly all actives have a fitted effect of over 60% in size
Conditions: P. falciparum in erythrocytes, SYBR Green DNA, 72 h; series mostly up to 28.7 µM
Records with an inconclusive call do not appear. Calls of active or inactive are those of the source. The call rests on the fitted dose curve; in most records, active means well fitted inhibition curve with a large enough effect; inconclusive means small, poorly fitted or top-dose-only effect; inactive means flat fitted curve, though single readings scatter.
Outcome codes: 1 (yes) = active, 0 (no) = inactive

{"columns": ["Compound", "Group"],
 "data": [
  ["CN(C)[C@H]1C(=O)C(C(N)=O)=C(O)[C@]2(O)C(=O)C3=C(O)c4c(O)cccc4[C@@](C)(O)[C@H]3C[C@@H]12", "0 (no)"],
  ["CC1(C)[C@@H](C=C(Cl)Cl)[C@@H]1C(=O)OCc1c(F)c(F)cc(F)c1F", "0 (no)"],
  ["CCCCCc1cc(O)c2c(c1)OC(C)(C)C1CC=C(C)CC21 (stereo not given)", "1 (yes)"],
  ["Cc1cc(C)cc(C(=O)OC2CC3CCC(C2)N3C)c1 (stereo not given)", "0 (no)"],
  ["OCC(O)[C@H]1O[C@@H]2O[C@H](C(Cl)(Cl)Cl)O[C@@H]2[C@H]1O (stereo not given in full)", "0 (no)"],
  ["O=[N+]([O-])OC1CO[C@H]2C(O[N+](=O)[O-])COC12 (stereo not given in full)", "0 (no)"],
  ["C[C@@H]1CC[C@H]2[C@@H](C)C(=O)O[C@@H]3OC4(C)CC[C@@H]1C32OO4 (stereo not given in full)", "1 (yes)"],
  ["CCCN1CCCC2Cc3nc(N)ncc3CC21 (stereo not given)", "0 (no)"],
  ["CC12CCC3C4CCC(=O)C(O)=C4CCC3C1CCC2OC(=O)CCC1CCCC1 (stereo not given)", "0 (no)"],
  ["C[C@H](N)Cc1ccccc1", "0 (no)"],
  ["CCCCCCC(=O)O[C@H]1CC[C@H]2[C@@H]3CCC4CC(=O)C=C(C)[C@]4(C)[C@H]3CC[C@]12C (stereo not given in full)", "0 (no)"],
  ["CC(Cc1ccccc1)N(C)C (stereo not given)", "0 (no)"],
  ["CCCC(C)C1(CC)C(=O)NC(=S)NC1=O (stereo not given)", "0 (no)"],
  ["OC[C@@H](O)[C@H]1O[C@@H]2OC(C(Cl)(Cl)Cl)O[C@H]2[C@H]1O (stereo not given in full)", "0 (no)"],
  ["COC(=O)C1C(OC(=O)c2ccccc2)CC2CCC1N2C (stereo not given)", "0 (no)"],
  ["C#C[C@]1(O)CC[C@H]2[C@@H]3CCC4=CC(=O)CCC4(C)[C@H]3CCC21C (stereo not given in full)", "0 (no)"],
  ["C[C@]12C=CC(=O)C=C1CC[C@@H]1C2CC[C@]2(C)OC(=O)CCC12 (stereo not given in full)", "0 (no)"],
  ["CC(=O)[C@H]1CC[C@H]2C3CC[C@H]4C[C@H](O)CC[C@]4(C)C3CC[C@]12C (stereo not given in full)", "0 (no)"],
  ["[S]=[Sb][S][Sb]=[S]", "0 (no)"],
  ["NC(Cc1ccc(Oc2cc(I)c(O)c(I)c2)c(I)c1)C(=O)O (stereo not given)", "0 (no)"]
]}
